System: MT2
METHOD NOTES: Effective concentration against HIV infected MT-2 cell line
Type: functional, cell-based
ASSAY CONTEXT: Homo sapiens
The following compounds are shown together with reported pEC50 values.
Hey, just a heads up that pEC50 is the negative log base 10 of the concentration in molar.

{"COMPOUND": "CC(C)(C)NC(=O)[C@@H]1C[C@@H]2CCCC[C@@H]2CN1C[C@@H](O)[C@H](Cc1ccccc1)NC(=O)[C@H](CC(N)=O)NC(=O)c1ccc2ccccc2n1", "pEC50": 8.30}

Entry "CC(C)(C)NC(=O)[C@@H]1C[C@@H]2CCCC[C@@H]2CN1C[C@@H](O)[C@@H]1Cc2ccc(cc2)OCCOc2cc3ccccc3cc2C(=O)N[C@@H](CC(N)=O)C(=O)N1" under MT2 had pEC50 of 7.74

# pEC50 measured on MT2 for item CC(C)[C@@H]1NC(=O)CCCCCOc2ccc(cc2)C[C@@H]([C@H](O)CN2CC3CCCCC3C[C@H]2C(=O)NC(C)(C)C)NC1=O (some centres not stated) = 8.10

----------
TEST TARGET: Human immunodeficiency virus type 1 protease (Human immunodeficiency virus 1, UniProt Q72874)
METHOD NOTES: In vitro inhibition HIV-1 IIIB protease.
READOUT NAME: IC50 (nM)
Report as a plain number; the unit nM is understood.

Record excerpt, results attached:
{"COMPOUND": "CC(C)(C)NC(=O)[C@@H]1CCCN1C[C@@H](O)[C@@H]1Cc2ccc(cc2)OCCOc2cc3ccccc3cc2C(=O)N[C@@H](CC(N)=O)C(=O)N1", "IC50 / nM": 450}
{"COMPOUND": "CC(C)[C@@H]1NC(=O)/C=C\\CCCCCOc2ccc(cc2)C[C@@H]([C@H](O)CN2CC3CCCCC3C[C@H]2C(=O)NC(C)(C)C)NC1=O (some centres undefined)", "IC50 / nM": 25}
{"COMPOUND": "CC(C)[C@@H]1NC(=O)/C=C\\CCCOc2ccc(cc2)C[C@@H]([C@H](O)CN2CC3CCCCC3C[C@H]2C(=O)NC(C)(C)C)NC1=O (some centres undefined)", "IC50 / nM": 7.3}

Lab note: measured IC50 of "CC(C)(C)NC(=O)[C@@H]1CCCN1C[C@H](O)[C@@H]1Cc2ccc(cc2)OCCCOc2cc3ccccc3cc2C(=O)N[C@@H](CC(N)=O)C(=O)N1" was 90000

----------
Tested on: MT2
METHOD NOTES: Effective concentration against HIV infected MT-2 cell line
Assay type: functional, cell-based
ASSAY CONTEXT: Homo sapiens
READOUT NAME: EC50 (nM)
Expressed in nM, but write only the number.

// below: answered molecules
{"MOLECULE": "CC(C)[C@@H]1NC(=O)/C=C\\CCCCCOc2ccc(cc2)C[C@@H]([C@H](O)CN2CC3CCCCC3C[C@H]2C(=O)NC(C)(C)C)NC1=O (some centres undefined)", "UNITS": "nM", "EC50": 216}
{"MOLECULE": "CCCCCCC(=O)N[C@H](C(=O)N[C@@H](Cc1ccccc1)[C@H](O)CN1CC2CCCCC2C[C@H]1C(=O)NC(C)(C)C)C(C)C (some centres undefined)", "UNITS": "nM", "EC50": 378}
{"MOLECULE": "CC(C)(C)NC(=O)[C@@H]1C[C@@H]2CCCC[C@@H]2CN1C[C@@H](O)[C@@H]1Cc2ccc(cc2)OCCCCOc2cc3ccccc3cc2C(=O)N[C@@H](CC(N)=O)C(=O)N1", "UNITS": "nM", "EC50": 315}
{"MOLECULE": "CC(C)[C@H](NC(=O)c1ccc2ccccc2c1)C(=O)N[C@@H](Cc1ccccc1)[C@H](O)CN1CC2CCCCC2C[C@H]1C(=O)NC(C)(C)C (some centres undefined)", "UNITS": "nM", "EC50": 8}
{"MOLECULE": "CC(C)[C@@H]1NC(=O)CCCCCCOc2ccc(cc2)C[C@@H]([C@H](O)CN2CC3CCCCC3C[C@H]2C(=O)NC(C)(C)C)NC1=O (some centres undefined)", "UNITS": "nM", "EC50": 4}
{"MOLECULE": "CC(C)[C@@H]1NC(=O)/C=C\\CCCOc2ccc(cc2)C[C@@H]([C@H](O)CN2CC3CCCCC3C[C@H]2C(=O)NC(C)(C)C)NC1=O (some centres undefined)", "UNITS": "nM", "EC50": 36}
{"MOLECULE": "CC(C)[C@@H]1NC(=O)c2cc3ccccc3cc2OCCCOc2ccc(cc2)C[C@@H]([C@H](O)CN2CC3CCCCC3C[C@H]2C(=O)NC(C)(C)C)NC1=O (some centres undefined)", "UNITS": "nM", "EC50": 17}
{"MOLECULE": "CC(C)(C)NC(=O)[C@@H]1C[C@@H]2CCCC[C@@H]2CN1C[C@@H](O)[C@@H]1Cc2ccc(cc2)OCCCOc2cc3ccccc3cc2C(=O)N[C@@H](CC(N)=O)C(=O)N1", "UNITS": "nM", "EC50": 14}

# EC50 (molecule: CC(C)[C@@H]1NC(=O)c2ccccc2OCCCOc2ccc(cc2)C[C@@H]([C@H](O)CN2CC3CCCCC3C[C@H]2C(=O)NC(C)(C)C)NC1=O (some centres undefined) ) is 20
